Origin of measurements: PubChem BioAssay (NCI)

test system: A549/ATCC NSCLC; test: NCI-60 one-dose screen, 48 h (100 = growth as untreated, 0 = no growth, -100 = all killed); details: 10 µM unless noted
About 83,000 compounds went through this panel and 20% of them were active in at least one assay; those are over-represented in the sample as a whole.
The label depends only on growth: True if it is at least 90%, False if it is smaller.

{"columns": ["compound", "assigned.class"],
 "data": [
  ["Cc1ccc(NCCN(C)C)c2c(=O)c3ccccc3sc12", "False"],
  ["CCCCCCCCCCN(CCCCCCCCCC)CC(=O)c1ccc2cc(Br)c3ccccc3c2c1", "False"]
]}

Q) In plain terms: is recorded growth at least 90% for `COc1ccccc1N1C(=O)/C(=C/C2=Cc3ccccc3OC2)SC1=S` ?
A) True

Q) In plain terms: is recorded growth at least 90% for `C[C@@]1(CCC#N)[C@H]2CC[C@@H]3[C@H]4[C@H](C(=O)/C=C/c5cccnc5)CC[C@]4(C#N)CC[C@@]3(C)[C@]2(C)CC[C@H]1C(=O)/C=C/c1cccnc1` ?
A) False

Q) In plain terms: is recorded growth at least 90% for `C=C(C)[C@@H]1CC[C@]2(C)[C@H](CC=C3[C@@H]4CC(C)(C)CC[C@]4(C(N)=O)CC[C@]32C)[C@@]1(C)CCC#N` ?
A) False

* * *

Below, each entry is listed with its recorded growth.
Test system: TK-10 renal
Experiment: NCI-60 one-dose screen, 48 h (100 = growth as untreated, 0 = no growth, -100 = all killed)
Conditions: 10 µM unless noted
Procedure: Growth inhibition of the TK-10 human tumor cell line is measured as a screen for anti-cancer activity. Cells are grown in 96 well plates and exposed to the test compound for 48 hours. Compounds are tested at a single concentration, which is 10^-5 M for most compounds. The reported endpoint is percent growth (GI% or GIPRCNT), where numbers from 0 - 100% represent growth inhibition, and numbers from -100% - 0 represent cell death. For example, a value of 40 represents 60% growth inhibition. […]
The panel holds about 83,000 compounds, 20% with a hit somewhere; the sample as a whole holds those more often.
Field format: number, assumed %, no unit text.

Solved cases (4 shown):
{"columns": ["compound", "result.number"],
 "data": [
  ["COc1ccc2c(c1)[nH]c(=O)c1c3cccnc3cn21", 61.8],
  ["CC(=O)OC[C@H]1OC(Sc2sc(C(=O)c3ccc(Br)cc3)c(N)c2-c2nc3ccccc3s2)[C@H](OC(C)=O)[C@@H](OC(C)=O)[C@@H]1OC(C)=O (stereo not given in full)", 111],
  ["N/C(=N/N=C/c1ccccc1)N/N=C\\c1ccccc1", 73.9],
  ["CN1CCN(CC(=O)Nc2nc(-c3cccc(NS(=O)(=O)c4cccc5c(N(C)C)cccc45)c3)cs2)CC1", 100]
]}

Reported growth for `Clc1cccc(Cl)c1C(Nc1nc2ccccc2s1)Nc1nc2ccccc2s1` was 114

Reported growth for `Cc1cc(NCc2cc(Nc3ccnc4cc(Cl)ccc34)ccc2F)nc(N2CCCC2)n1` was -35.8

Reported growth for `COc1ccc(-c2ccc3c(c2)sc2nc(-c4ccc(F)cc4)cn23)cc1` was 75.6

Reported growth for `Cc1c(C(=O)OC(=NC2CCCCC2)NC2CCCCC2)sc2c1c(=O)nc1c(C#N)n[nH]n12` was 117

Reported growth for `CC(C)CCC[C@@H](C)[C@H]1CC[C@H]2[C@@H](Nc3ccc(O)cc3)CCC[C@]12C` was 83

Reported growth for `Cc1ccc(S(=O)(=O)NCC[C@@H]2C[C@H]2c2cc3ccccc3s2)cc1` was 110

* * *

Below, each entry is listed with its recorded growth.
system: SF-268 CNS; assay: NCI-60 one-dose screen, 48 h (100 = growth as untreated, 0 = no growth, -100 = all killed); details: 10 µM unless noted
Compounds without any hit were thinned out: in the full panel of roughly 83,000, 20% have a hit.
Field format: number, assumed %, no unit text.

Reported growth for N#Cc1c2c(nn(-c3ccccc3)c1=O)C(O)=C([N+](=O)[O-])C(c1ccccc1)C2 (stereo unspecified) was 88

Reported growth for `COc1cccc(-c2nc3sccn3c2/C=C/C(=O)c2ccc(C(F)(F)F)cc2)c1` was 89.2

Reported growth for `Cc1ccc(-c2c(-c3ccccc3)c(=O)oc3ccc(C)cc23)cc1` was 91.8

* * *

system: HOP-92 NSCLC; test: NCI-60 one-dose screen, 48 h; details: 10 µM unless noted
This is part of a sample that, as a whole, favours compounds with a hit. Of some 83,000 tested, about 20% had one in any assay. Calls of active or inactive are those of the source. Rule for the calls: active = growth percent below 10; inactive = the rest.
Parameter call: string, one of YES for active, NO for inactive

Please review the entries below; each comes with its answer.
{"columns": ["compound", "target.system", "assigned.class"],
 "data": [
  ["COc1ccc(-c2c(N)n[nH]c2-c2ccc(Cl)cc2O)cc1OC", "HOP-92 NSCLC", "NO"],
  ["O=c1[nH]c2ccccc2n1C1CCN(CCOc2ccccc2)CC1", "HOP-92 NSCLC", "NO"],
  ["N#Cc1c2c(nn(-c3ccccc3)c1=O)C(O)=C([N+](=O)[O-])C(c1ccccc1)C2 (configuration not stated)", "HOP-92 NSCLC", "NO"],
  ["O=C1CCC2=C3C4CCCCC4C(=O)C4CCCC(OC2C1)C34 (configuration not stated)", "HOP-92 NSCLC", "YES"]
]}

Q) Could you kindly confirm the outcome this assay logged for `O=C(CCCCCCN1CC(=O)N2[C@@H](c3ccccc3Cl)c3[nH]c4ccccc4c3C[C@H]2C1=O)NO` ?
A) YES

Q) Could you kindly confirm the outcome this assay logged for `CCOC(=O)c1csc(NC(=O)COc2cccc(/C=C3\Oc4cc(OC)ccc4C3=O)c2)n1` ?
A) NO

Q) Could you kindly confirm the outcome this assay logged for CC1=C(SCCC(=O)OC(C[Se]C2=C(C)C(=O)c3ccccc3C2=O)C(=O)NCCCCCC(=O)OCc2ccccc2)C(=O)c2ccccc2C1=O (configuration not stated) ?
A) NO

Q) Could you kindly confirm the outcome this assay logged for `COc1c(CCC[P+](c2ccccc2)(c2ccccc2)c2ccccc2)cc2c(c1OC)OCO2` ?
A) YES

Q) Could you kindly confirm the outcome this assay logged for `O=C(/C=C/c1cccc(O)c1)c1cccc(-n2cc(-c3ccc4ccccc4c3)[nH]c2=O)c1` ?
A) NO

Q) Could you kindly confirm the outcome this assay logged for `COc1cccc(-c2nn(-c3ccccc3)cc2-c2ccnc(NCCCNC(=O)Nc3ccc(Cl)c(Cl)c3)c2)c1` ?
A) YES

* * *

Below, each entry is listed with its recorded growth.
tested on: LOX IMVI melanoma; experiment: NCI-60 one-dose screen, 48 h (100 = growth as untreated, 0 = no growth, -100 = all killed); conditions: 10 µM unless noted
About 83,000 compounds went through this panel and 20% of them were active in at least one assay; those are over-represented in the sample as a whole.
Field format: number, assumed %, no unit text.

Solved cases (3 shown):
{"columns": ["compound", "target.system", "growth / %"],
 "data": [
  ["COc1ccc(/C=c2\\nc3n(-c4ccccc4)c4nc5c6c(sc5c(=N)n4n-3c2=O)CCCC6)cc1", "LOX IMVI melanoma", 91.2],
  ["COC(=O)c1ccc(C2Nc3ccc(S(=O)(=O)Nc4ccc(C)c(C)c4)cc3C3OCCC23)cc1 (configuration not stated)", "LOX IMVI melanoma", 93],
  ["COc1cccc(Nc2nccc(Nc3ccc4[nH]ncc4c3)n2)c1", "LOX IMVI melanoma", -66.9]
]}

Reported growth for `Cc1cc(/C=C\c2ccc3ccccc3[n+]2C)c(O)c2ncccc12` was -27.2

Reported growth for `COc1ccc(-c2csc(C3=C(O)CN(CCCN4CCCC4=O)C3=N)n2)cc1OC` was 93.5

Reported growth for `CCCCCCN(CCCCCC)c1ccc(/C=C2/SC(=O)N(c3nc(N4CCCC4)nc(N4CCCC4)n3)C2=O)c(C)c1` was 71.8

Reported growth for `COc1ccc2c(c1)C(=O)/C(=C/c1cccc(OCC(=O)Nc3nc(C)c(C)s3)c1)O2` was -63.9

Reported growth for `COc1cc(N=Nc2cc(Cc3ccc(N(C)C)cc3)c(N)cc2N(C)C)c2ncccc2c1` was -83.2

Reported growth for `O=C(Nc1ccccc1)Nc1cccc(Oc2nnc(Cl)c3ccccc23)c1` was 32.1

Reported growth for `Cc1cccc(NC(=O)N/C(N)=N/c2nc(C)c(C)s2)c1` was 42.7

* * *

System: HCT-15 colon
Test: NCI-60 one-dose screen, 48 h (100 = growth as untreated, 0 = no growth, -100 = all killed)
Settings: 10 µM unless noted
Experimental: Growth inhibition of the HCT-15 human tumor cell line is measured as a screen for anti-cancer activity. Cells are grown in 96 well plates and exposed to the test compound for 48 hours. Compounds are tested at a single concentration, which is 10^-5 M for most compounds. The reported endpoint is percent growth (GI% or GIPRCNT), where numbers from 0 - 100% represent growth inhibition, and numbers from -100% - 0 represent cell death. For example, a value of 40 represents 60% growth inhibition. […]
Compounds without any hit were thinned out: in the full panel of roughly 83,000, 20% have a hit.
assay.endpoint: growth (%)
Field format: number, assumed %, no unit text.

{"columns": ["item.smiles", "growth / %"],
 "data": [
  ["C=CCn1c(C)nc2cc(Nc3nc(Cl)nc4ccccc34)ccc21", 92.3],
  ["O=C(COc1ccc(/C=C2\\Oc3ccccc3C2=O)cc1)Nc1nc2c(s1)CCCC2", 89.7],
  ["O=C(CSc1nnc(-c2ccc(NC(=O)c3cccnc3)cc2)o1)Nc1cccc(Br)c1", 90.6]
]}

We next turn to a different compound, shown below.
Reported growth for `O=C1Nc2ccccc2/C1=C/c1cn(C(=O)c2ccc(Cl)cc2)c2ccccc12` was 92.1
